Test system: HeLa Kyoto
protocol-description: solubility in G1/S (NP-40 vs SDS abundance) (log2 ratio); higher = more soluble
condition-details: cell cycle stage: G1/S
Catalogue of solubility in G1/S (log2) values
The response must contain the number and no unit.

Reference set, count: 5
- seq-text: "MLSSCVRPVPTTVRFVDSLICNSSRSFMDLKALLSSLNDFASLSFAESWDNVGLLVEPSPPHTVNTLFLTNDLTEEVMEEVLQKKADLILSYHPPIFRPMKRITWNTWKERLVIRALENRVGIYSPHTAYDAAPQGVNNWLAKGLGACTSRPIHPSKAPNYPTEGNHRVEFNVNYTQDLDKVMSAVKGIDGVSVTSFSARTGNEEQTRINLNCTQKALMQVVDFLSRNKQLYQKTEILSLEKPLLLHTGMGRLCTLDESVSLATMIDRIKRHLKLSHIRLALGVGRTLESQVKVVALCAGSGSSVLQGVEADLYLTGEMSHHDTLDAASQGINVILCEHSNTERGFLSDLRDMLDSHLENKINIILSETDRDPLQVV [NIF3L1]"
  value-measured: 0.187
- seq-text: "MTPLCPRPALCYHFLTSLLRSAMQNARGARQRAEAAVLSGPGPPLGRAAQHGIPRPLSSAGRLSQGCRGASTVGAAGWKGELPKAGGSPAPGPETPAISPSKRARPAEVGGMQLRFARLSEHATAPTRGSARAAGYDLYSAYDYTIPPMEKAVVKTDIQIALPSGCYGRVAPRSGLAAKHFIDVGAGVIDEDYRGNVGVVLFNFGKEKFEVKKGDRIAQLICERIFYPEIEEVQALDDTERGSGGFGSTGKN [DUT]"
  value-measured: 0.483
- seq-text: "MSDAAVDTSSEITTKDLKEKKEVVEEAENGRDAPANGNAENEENGEQEADNEVDEEEEEGGEEEEEEEEGDGEEEDGDEDEEAESATGKRAAEDDEDDDVDTKKQKTDEDD [PTMA]"
  value-measured: -1.5
- seq-text: "MEDGVLKEGFLVKRGHIVHNWKARWFILRQNTLVYYKLEGGRRVTPPKGRILLDGCTITCPCLEYENRPLLIKLKTQTSTEYFLEACSREERDAWAFEITGAIHAGQPGKVQQLHSLRNSFKLPPHISLHRIVDKMHDSNTGIRSSPNMEQGSTYKKTFLGSSLVDWLISNSFTASRLEAVTLASMLMEENFLRPVGVRSMGAIRSGDLAEQFLDDSTALYTFAESYKKKISPKEEISLSTVELSGTVVKQGYLAKQGHKRKNWKVRRFVLRKDPAFLHYYDPSKEENRPVGGFSLRGSLVSALEDNGVPTGVKGNVQGNLFKVITKDDTHYYIQASSKAERAEWIEAIKKLT [PLEK2]"
  value-measured: -0.00783
- seq-text: "MLPRRLLAAWLAGTRGGGLLALLANQCRFVTGLRVRRAQQIAQLYGRLYSESSRRVLLGRLWRRLHGRPGHASALMAALAGVFVWDEERIQEEELQRSINEMKRLEEMSNMFQSSGVQHHPPEPKAQTEGNEDSEGKEQRWEMVMDKKHFKLWRRPITGTHLYQYRVFGTYTDVTPRQFFNVQLDTEYRKKWDALVIKLEVIERDVVSGSEVLHWVTHFPYPMYSRDYVYVRRYSVDQENNMMVLVSRAVEHPSVPESPEFVRVRSYESQMVIRPHKSFDENGFDYLLTYSDNPQTVFPRYCVSWMVSSGMPDFLEKLHMATLKAKNMEIKVKDYISAKPLEMSSEAKATSQSSERKNEGSCGPARIEYA [STARD7]"
  value-measured: 0.128

Here's the next entry for you.
Prompt: Request the reported solubility in G1/S (log2) associated with MGVQPPNFSWVLPGRLAGLALPRLPAHYQFLLDLGVRHLVSLTERGPPHSDSCPGLTLHRLRIPDFCPPAPDQIDRFVQIVDEANARGEAVGVHCALGFGRTGTMLACYLVKERGLAAGDAIAEIRRLRPGSIETYEQEKAVFQFYQRTK [DUSP23]
Completion: 0.00547

###

Catalogue of solubility change mitosis (log2) values
Tested on: HeLa Kyoto
protocol-description: solubility change mitosis vs G1/S (difference of NP-40 vs SDS log2 ratios) (log2 ratio difference); higher = more soluble in mitosis

Reference set, count: 5
- substance: "MDAPGALAQTAAPGPGRKELKIVIVGDGGCGKTSLLMVYSQGSFPEHYAPSVFEKYTASVTVGSKEVTLNLYDTAGQEDYDRLRPLSYQNTHLVLICYDVMNPTSYDNVLIKWFPEVTHFCRGIPMVLIGCKTDLRKDKEQLRKLRAAQLEPITYMQGLSACEQIRAALYLECSAKFRENVEDVFREAAKVALSALKKAQRQKKRRLCLLL [RHOF]"
  solubility change mitosis (log2): -0.104
- substance: "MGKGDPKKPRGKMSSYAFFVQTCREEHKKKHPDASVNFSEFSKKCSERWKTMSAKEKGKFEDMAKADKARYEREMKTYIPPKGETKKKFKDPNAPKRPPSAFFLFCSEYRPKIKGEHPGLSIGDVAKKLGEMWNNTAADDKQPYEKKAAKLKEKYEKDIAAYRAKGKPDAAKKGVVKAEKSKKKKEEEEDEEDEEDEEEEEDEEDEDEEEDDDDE [HMGB1]"
  solubility change mitosis (log2): 0.257
- substance: "MVHAFLIHTLRAPNTEDTGLCRVLYSCVFGAEKSPDDPRPHGAERDRLLRKEQILAVARQVESMCRLQQQASGRPPMDLQPQSSDEQVPLHEAPRGAFRLAAENPFQEPRTVVWLGVLSLGFALVLDAHENLLLAEGTLRLLTRLLLDHLRLLAPSTSLLLRADRIEGILTRFLPHGQLLFLNDQFVQGLEKEFSAAWPR [AP5S1]"
  solubility change mitosis (log2): -0.153
- substance: "MALDFLAGCAGGVAGVLVGHPFDTVKVRLQVQSVEKPQYRGTLHCFKSIIKQESVLGLYKGLGSPLMGLTFINALVFGVQGNTLRALGHDSPLNQFLAGAAAGAIQCVICCPMELAKTRLQLQDAGPARTYKGSLDCLAQIYGHEGLRGVNRGMVSTLLRETPSFGVYFLTYDALTRALGCEPGDRLLVPKLLLAGGTSGIVSWLSTYPVDVVKSRLQADGLRGAPRYRGILDCVHQSYRAEGWRVFTRGLASTLLRAFPVNAATFATVTVVLTYARGEEAGPEGEAVPAAPAGPALAQPSSL [SLC25A29]"
  solubility change mitosis (log2): -0.0388
- substance: "MAAPGLRLGAGRLFEMPAVLERLSRYNSTSQAFAEVLRLPKQQLRKLLYPLQEVERFLAPYGRQDLHLRIFDPSPEDIARADNIFTATERNRIDYVSSAVRIDHAPDLPRPEVCFIGRSNVGKSSLIKALFSLAPEVEVRVSKKPGHTKKMNFFKVGKHFTVVDMPGYGFRAPEDFVDMVETYLKERRNLKRTFLLVDSVVGIQKTDNIAIEMCEEFALPYVIVLTKIDKSSKGHLLKQVLQIQKFVNMKTQGCFPQLFPVSAVTFSGIHLLRCFIASVTGSLD [GTPBP8]"
  solubility change mitosis (log2): -0.0931

Prompt: Request the reported solubility change mitosis (log2) associated with MAKGRVAERSQLGAHHTTPVGDGAAGTRGLAAPGSRDHQKEKSWVEAGSARMSLLILVSIFLSAAFVMFLVYKNFPQLSEEERVNMKVPRDMDDAKALGKVLSKYKDTFYVQVLVAYFATYIFLQTFAIPGSIFLSILSGFLYPFPLALFLVCLCSGLGASFCYMLSYLVGRPVVYKYLTEKAVKWSQQVERHREHLINYIIFLRITPFLPNWFINITSPVINVPLKVFFIGTFLGVAPPSFVAIKAGTTLYQLTTAGEAVSWNSIFILMILAVLSILPAIFQKKLKQKFE [TMEM41B]
Completion: 0.0116

Prompt: Entry `LAMTOR5` please
Completion: -0.0394

###

Tested on: HeLa Kyoto
protocol-description: thermal stability score vs G1/S (z-score of summed log2 fold changes over temperatures); higher = more thermally stable than in G1/S
condition-details: cell cycle stage: mitosis
Catalogue of thermal stability score values
The response must contain the number and no unit.

Reference set, count: 2
- seq-text: "MFTSTGSSGLYKAPLSKSLLLVPSALSLLLALLLPHCQKLFVYDLHAVKNDFQIWRLICGRIICLDLKDTFCSSLLIYNFRIFERRYGSRKFASFLLGSWVLSALFDFLLIEAMQYFFGITAASNLPSGFLAPVFALFVPFYCSIPRVQVAQILGPLSITNKTLIYILGLQLFTSGSYIWIVAISGLMSGLCYDSKMFQVHQVLCIPSWMAKFFSWTLEPIFSSSEPTSEARIGMGATLDIQRQQRMELLDRQLMFSQFAQGRRQRQQQGGMINWNRLFPPLRQRQNVNYQGGRQSEPAAPPLEVSEEQVARLMEMGFSRGDALEALRASNNDLNVATNFLLQH [UBAC2]"
  system-under-test: "HeLa Kyoto"
  metric: "thermal stability score"
  value-measured: 1.39
- seq-text: "MSAEVETSEGVDESEKKNSGALEKENQMRMADLSELLKEGTKEAHDRAENTQFVKDFLKGNIKKELFKLATTALYFTYSALEEEMERNKDHPAFAPLYFPMELHRKEALTKDMEYFFGENWEEQVQCPKAAQKYVERIHYIGQNEPELLVAHAYTRYMGDLSGGQVLKKVAQRALKLPSTGEGTQFYLFENVDNAQQFKQLYRARMNALDLNMKTKERIVEEANKAFEYNMQIFNELDQAGSTLARETLEDGFPVHDGKGDMRKCPFYAAEQDKGALEGSSCPFRTAMAVLRKPSLQFILAAGVALAAGLLAWYYM [HMOX2]"
  system-under-test: "HeLa Kyoto"
  metric: "thermal stability score"
  value-measured: 1.97

Here's the next entry for you.
Prompt: Request the reported thermal stability score associated with MASADSRRVADGGGAGGTFQPYLDTLRQELQQTDPTLLSVVVAVLAVLLTLVFWKLIRSRRSSQRAVLLVGLCDSGKTLLFVRLLTGLYRDTQTSITDSCAVYRVNNNRGNSLTLIDLPGHESLRLQFLERFKSSARAIVFVVDSAAFQREVKDVAEFLYQVLIDSMGLKNTPSFLIACNKQDIAMAKSAKLIQQQLEKELNTLRVTRSAAPSTLDSSSTAPAQLGKKGKEFEFSQLPLKVEFLECSAKGGRGDVGSADIQDLEKWLAKIA [SRPRB]
Completion: 5.21
